- System: Echinochloa oryzicola Vasing
- METHOD SUMMARY: Herbicidal effects in paddy field soil treatment (Test Example 1)
- Assay type: in vivo
- Set-up: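 grade 0 to 5 of growth suppression where 5 is 90% or more and 0 below 10%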
- TEST PARAMETERS: paddy field soil treatment; 1000 g of the active ingredient per hectare; wettable powder added dropwise on water surface; 21st day after treatment
PARAMETER: Herbicidal effects index, Echinochloa oryzicola Vasing
Give the figure by itself; no unit, no explanation.

Examples with their reported Herbicidal effects index, Echinochloa oryzicola Vasing follow.
chemical_structure=COc1ccc(-n2c(=O)c(C(=O)C3=C(O)CCCC3=O)nc3ccccc32)cc1C val=5
chemical_structure=O=C1CCCC(O)=C1C(=O)c1nc2ccccc2n(-c2ccsc2)c1=O val=5
chemical_structure=Cc1nc(-n2c(=O)c(C(=O)C3=C(O)CCCC3=O)nc3ccccc32)no1 val=4
chemical_structure=CC(C)(C)OC(=O)Cn1c(=O)c(C(=O)C2=C(O)CCCC2=O)nc2cccnc21 val=5
chemical_structure=COc1ccc(-n2c(=O)c(C(=O)C3=C(O)CCCC3=O)nc3ccccc32)cc1Cl val=4
chemical_structure=COCCn1c(=O)c(C(=O)C2=C(O)CCCC2=O)nc2ccccc21 val=5

What Herbicidal effects index, Echinochloa oryzicola Vasing value was documented for this compound, `Cc1cc(-n2c(=O)c(C(=O)C3=C(O)CCCC3=O)nc3ccccc32)sn1` ?
5

What Herbicidal effects index, Echinochloa oryzicola Vasing value was documented for this compound, `O=C1CCCC(O)=C1C(=O)c1nc2cccnc2n(COCC(F)(F)F)c1=O` ?
5

What Herbicidal effects index, Echinochloa oryzicola Vasing value was documented for this compound, `COc1c(F)cc(-n2c(=O)c(C(=O)C3=C(O)CCCC3=O)nc3ccc(C)cc32)cc1F` ?
5

Data origin, for the record: patent US8389523B2
